Where these numbers come from: patent US20250011330A1

- tested-on: TDP1 (Homo sapiens (Human), UniProt Q9NUW8)
- Sequence (Q9NUW8 whole entry): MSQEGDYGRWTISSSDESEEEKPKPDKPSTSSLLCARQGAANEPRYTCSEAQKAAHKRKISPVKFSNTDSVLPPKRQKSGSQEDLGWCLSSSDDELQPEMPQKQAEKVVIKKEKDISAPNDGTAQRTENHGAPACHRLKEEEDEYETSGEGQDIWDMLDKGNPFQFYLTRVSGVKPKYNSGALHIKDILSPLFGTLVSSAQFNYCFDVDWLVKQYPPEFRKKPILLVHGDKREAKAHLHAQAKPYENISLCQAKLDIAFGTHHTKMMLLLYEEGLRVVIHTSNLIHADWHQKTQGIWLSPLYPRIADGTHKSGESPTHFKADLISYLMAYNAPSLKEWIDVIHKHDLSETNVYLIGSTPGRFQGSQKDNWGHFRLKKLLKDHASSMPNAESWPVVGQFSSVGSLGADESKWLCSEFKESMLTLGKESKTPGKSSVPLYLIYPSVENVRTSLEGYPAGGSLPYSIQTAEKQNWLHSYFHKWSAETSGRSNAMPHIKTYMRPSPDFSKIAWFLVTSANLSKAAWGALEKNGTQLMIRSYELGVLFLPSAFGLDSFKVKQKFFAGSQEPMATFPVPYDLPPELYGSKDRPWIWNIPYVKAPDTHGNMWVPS
- assay-overview: TDP1 gel-based in vitro fluorescence assay
- Type: biochemical
- protocol-conditions: Table 2, imidazo[1,2-a]pyrazin-3-amine core; read-out: IC50
endpoint: pIC50
// field semantics: pIC50 = negative decimal log of concentration (mol/L)

Which value of pIC50 has been reported for COc1ccccc1Nc1c(-c2ccc(C(=O)O)cc2)nc2cnccn12 [Compound 7g] in the records?
2.64

Which value of pIC50 has been reported for O=C(O)c1cccc(Nc2c(-c3cccc(O)c3)nc3cnccn23)c1 [Compound 7n] in the records?
2.69

Which value of pIC50 has been reported for O=C(O)c1ccc(Nc2c(-c3ccc(O)cc3)nc3cnccn23)cc1 [Compound 7e] in the records?
4.70

Which value of pIC50 has been reported for O=C(O)c1cccc(Nc2c(-c3ccc(O)cc3)nc3cnccn23)c1 [Compound 7o] in the records?
3.67

Which value of pIC50 has been reported for O=C(O)c1cccc(Nc2c(-c3ccccc3O)nc3cnccn23)c1 [Compound 7m] in the records?
3.43

Which value of pIC50 has been reported for O=C(O)c1ccc(Nc2c(-c3cccc(O)c3)nc3cnccn23)cc1 [Compound 7d] in the records?
3.90

Which value of pIC50 has been reported for O=C(O)c1ccc(Nc2c(-c3ccccc3)nc3cnccn23)c(O)c1 [Compound 7f] in the records?
4.74

Which value of pIC50 has been reported for CN(C)c1ccc(-c2nc3cnccn3c2Nc2cccc(C(=O)O)c2)cc1 [Compound 7q] in the records?
2.54

Which value of pIC50 has been reported for O=C(O)c1cccc(Nc2c(-c3ccc(N4CCOCC4)cc3)nc3cnccn23)c1 [Compound 7p] in the records?
3.03
